STUDY TARGET: URAT-1 model (Homo sapiens)
Sequence (Q96S37 whole entry): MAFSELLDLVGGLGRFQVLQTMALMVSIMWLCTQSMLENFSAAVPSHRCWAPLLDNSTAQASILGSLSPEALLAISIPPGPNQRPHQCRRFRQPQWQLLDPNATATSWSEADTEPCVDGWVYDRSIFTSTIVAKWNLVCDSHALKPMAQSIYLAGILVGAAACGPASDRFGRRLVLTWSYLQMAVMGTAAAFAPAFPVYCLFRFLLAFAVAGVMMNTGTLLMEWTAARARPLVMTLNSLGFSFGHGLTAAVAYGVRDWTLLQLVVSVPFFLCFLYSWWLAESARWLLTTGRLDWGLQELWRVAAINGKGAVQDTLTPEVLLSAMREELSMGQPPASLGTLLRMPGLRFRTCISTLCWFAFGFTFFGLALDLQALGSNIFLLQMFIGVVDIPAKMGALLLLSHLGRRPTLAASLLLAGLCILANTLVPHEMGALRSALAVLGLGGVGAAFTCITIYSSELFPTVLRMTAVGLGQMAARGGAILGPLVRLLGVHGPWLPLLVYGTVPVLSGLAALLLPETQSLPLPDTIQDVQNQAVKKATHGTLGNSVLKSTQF
PROCEDURE DETAILS: URAT1-model assay, 14C-uric acid transport in HEK293/URAT1-model cells
CONDITION DETAILS: 125 μM 14C-uric acid, 10 minutes
pEC50: −log10 of the molar value.
ASSAY METRIC: pEC50

Ask: Given the entry CC(C)(Sc1ccncc1-c1ccc(C#N)c2ccccc12)C(=O)O , report its measured pEC50.
Reply: ≥ 7.30
